- Test system: Leptosphaeria nodorum
- test-method-notes: Leptosphaeria nodorum test (wheat) / protective
- Format: in vivo
- stated-conditions: 500 ppm active ingredient, evaluated 12-14 days after inoculation, 0 % = control, 100 % = no infestation
metric-name: Wirkungsgrad

Example compounds with recorded Wirkungsgrad:
CCN(C)C=Nc1cc(C)c(Oc2ccc(Cl)c(Br)c2)cc1C	≥ 70%
Cc1cc(Oc2ccc(Cl)c(I)c2)c(C)cc1N=CN1CCCCC1	≥ 70%
CCN(C)C=Nc1cc(C)c(Oc2cc(F)cc(Br)c2)cc1C	≥ 70%

For `Cc1cc(Oc2cc(F)cc(I)c2)c(C)cc1N=CN1CCCCC1` the compound record lists Wirkungsgrad as ≥ 70%

The measured Wirkungsgrad associated with `Cc1cc(Oc2ccc(Cl)c(I)c2)c(C)cc1N=CN(C)C(C)C` reads ≥ 70%

Reported Wirkungsgrad ( `CCN(C)C=Nc1cc(C)c(Oc2ccc(Cl)c(I)c2)cc1C` ) = ≥ 70%

The reported Wirkungsgrad of the compound `CCN(C)C=Nc1cc(C)c(Oc2ccc(Br)c(I)c2)cc1C` was ≥ 70%
